Target: Lysine-specific histone demethylase 1A (Homo sapiens)
pKi: −log10 of the molar value.
value kind: pKi

Quick note, pKi for N[C@@H]1C[C@H]1c1ccccc1-c1ccccc1 landed at < 4.00
